- ASSAY METHOD TEXT: chemical genetic growth profiling, strain panel (AID 1159580);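 note: tested at 20 µM; growth read once vehicle control cultures reached saturation at 30 °C; lower values mean less growth of the strain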
- CONDITIONS USED: S. cerevisiae deletion strains, growth OD, locus YOR231W, strain MKK1
Screen size: about 5,500 compounds; about 2,000 (36%) were called active. Inconclusive results (about 18%) are left out. Cut-off read from the data, not from the text of the source: active = normalized growth mostly below about 0.91 (no sharp cut-off); inconclusive = no clear call, values can overlap the other calls; inactive = mostly above about 0.92. The list shows a part of the results.
Give one outcome, nothing more. List: active, inactive

// below: answered compounds
O=[N+]([O-])O[C@H]1CO[C@H]2[C@@H]1OC[C@H]2O[N+](=O)[O-]    active
CC[C@H]1OC(=O)C[C@@H](O)[C@H](C)[C@@H](O[C@@H]2O[C@H](C)[C@@H](O[C@H]3C[C@@](C)(O)[C@@H](O)[C@H](C)O3)[C@H](N(C)C)[C@H]2O)[C@@H](CC=O)C[C@@H](C)C(=O)/C=C/C(C)=C/[C@@H]1CO[C@@H]1O[C@H](C)[C@@H](O)[C@@H](OC)[C@H]1OC    inactive
CC(=O)OCC1=C(C(=O)O)N2C(=O)[C@@H](N)C2SC1 (stereo partly drawn)    inactive
COc1ccc(C[C@H]2NC[C@H](O)[C@H]2OC(C)=O)cc1    inactive
O=C(Nc1c(Br)c(C2CC2)nn1-c1ccccc1)C(Cl)(Cl)Cl    inactive
COc1cc(OC)c2c(c1)O[C@H](c1ccc(OC)c(OC)c1)[C@@H](O)C2    inactive
COc1ccc2c(c1)OC[C@@H](Cc1ccc(OC)c(OC)c1)[C@@H]2O    inactive

We now examine a further compound.
Assay outcome for CC1(C)S[C@@H]2[C@H](NC(=O)[C@H](NC(=O)N3CCNC3=O)c3ccccc3)C(=O)N2C1C(=O)O (stereo partly drawn) : what was it?
inactive
